Cited source for all entries: patent US4448730A

# assayed system: ribonucleotide reductase (Rattus norvegicus, UniProt Q4KLN6)
# Sequence (Q4KLN6 1-390): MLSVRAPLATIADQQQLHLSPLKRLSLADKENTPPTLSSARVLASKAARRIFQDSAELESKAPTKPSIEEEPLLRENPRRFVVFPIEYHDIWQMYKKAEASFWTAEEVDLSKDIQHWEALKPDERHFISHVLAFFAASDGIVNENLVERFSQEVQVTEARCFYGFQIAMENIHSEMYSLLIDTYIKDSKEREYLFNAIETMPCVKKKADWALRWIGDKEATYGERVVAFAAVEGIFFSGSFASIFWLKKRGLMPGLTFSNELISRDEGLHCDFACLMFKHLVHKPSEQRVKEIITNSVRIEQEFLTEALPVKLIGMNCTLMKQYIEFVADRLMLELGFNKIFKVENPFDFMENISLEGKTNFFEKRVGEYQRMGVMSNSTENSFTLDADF
Strictly below 100 µM in IC50: yes. Otherwise: no.

Some solved cases for reference:
compound | assigned label
O=C(NO)c1cccc(O)c1O [2,3-dihydroxybenzohydroxamic acid] | yes
O=C(NO)c1cc(O)ccc1O [2,5-dihydroxybenzohydroxamic acid] | no
O=C(NO)c1cc(O)cc(O)c1 [3,5-dihydroxybenzohydroxamic acid] | no
NC(=O)c1ccc(O)c(O)c1O [2,3,4-trihydroxybenzamide] | yes
NC(=O)c1cc(O)c(O)c(O)c1 [3,4,5-trihydroxybenzamide] | yes
O=C(NO)c1cc(O)c(O)c(O)c1 [3,4,5-trihydroxybenzohydroxamic acid] | yes

IC50 under 100 µM? Item: O=C(NO)c1ccc(O)c(O)c1 [3,4-dihydroxybenzohydroxamic acid]
yes

Just wondering, is IC50 of O=C(NO)c1ccc(O)c(O)c1O [2,3,4-trihydroxybenzohydroxamic acid] below 100 µM?
yes

Is IC50 of O=C(NO)c1ccc(O)cc1O [2,4-dihydroxybenzohydroxamic acid] strictly below 100 µM?
no

Item NC(=O)c1ccc(O)c(O)c1 [3,4-dihydroxybenzamide] : IC50 beneath 100 µM, strictly?
yes
